# Study target: Insulin-like growth factor 1 receptor (Homo sapiens);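 also: values are mean percent inhibition of IGF1R kinase activity, from the GSK published kinase inhibitor set (PKIS) screening panel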
# Test context: at 0.1 µM
Readout: inhibition (%)
Provide only the numeric value, understood in %.

Problem: Please give the documented inhibition of Cc1cc(Cl)cc2c1NC(=O)C2=NNc1ccc(S(N)(=O)=O)cc1
Solution: 2.32

Problem: Please give the documented inhibition of C[C@@H](Oc1cc(-n2cnc3ccc(OC[C@@H](O)CO)cc32)sc1C(N)=O)c1ccccc1Cl
Solution: -1.52

Problem: Please give the documented inhibition of CCn1c(-c2nonc2N)nc2c(C#CC(C)(C)O)nc(OCCNC)cc21
Solution: 5.39

Problem: Please give the documented inhibition of Cc1ccc2c(-c3ccnc(Nc4cccc(C(F)(F)F)c4)n3)c(-c3ccccc3)nn2n1
Solution: 2.54

Problem: Please give the documented inhibition of CCS(=O)(=O)c1ccc(OC)c(Nc2nccc(N(C)c3ccc4c(C)n[nH]c4c3)n2)c1
Solution: 12.5

Problem: Please give the documented inhibition of Cc1cc(O)cc(C)c1/C=C/c1cncc(C(=O)N(C)C)c1
Solution: 2.54

Problem: Please give the documented inhibition of Nc1nccc(-c2c(-c3ccc(F)cc3)nn3cc(C(F)(F)F)ccc23)n1
Solution: -1.56

Problem: Please give the documented inhibition of Cc1ccc(C(=O)NC2CC2)cc1-c1ccc2[nH]ncc2c1
Solution: 29.6

Problem: Please give the documented inhibition of COc1cccc(-n2nc(C)c3c(N/N=C(\C)c4ccncc4)ncnc32)c1
Solution: -0.28

Problem: Please give the documented inhibition of N#Cc1cccc(Nc2nccc(-c3cnn4ncccc34)n2)c1
Solution: 8.04

----------
Give measured inhibition for each item. Keep answers brief.
# Study target: Tyrosine-protein kinase JAK2 (Homo sapiens);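 also: mean JAK2 inhibition from the GSK PKIS screen, compounds tested at 1 µM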
# Test context: at 1 µM
Provide only the numeric value, understood in %.

Problem: Please give the documented inhibition of CCCN1CCCC(c2ccc(Nc3nc(Nc4cc(F)ccc4C(N)=O)c4cc[nH]c4n3)c(OC)c2)C1 (centres undefined)
Solution: 2.51

Problem: Please give the documented inhibition of O=C1Nc2ccccc2/C1=C/Nc1ccc2[nH]c(=O)[nH]c2c1
Solution: 1.93

Problem: Please give the documented inhibition of O=C(Nc1ccc(Oc2ccc3[nH]c(NC(=O)c4ccco4)nc3c2)cc1)Nc1cc(C(F)(F)F)ccc1F
Solution: 7.23

Problem: Please give the documented inhibition of ON=C1CCc2cc(-c3nc(C4CCNCC4)[nH]c3-c3ccncc3)ccc21
Solution: 0.28

Problem: Please give the documented inhibition of CC(C)c1ccc2c(c1)NC(=O)/C2=N/Nc1ccc(S(N)(=O)=O)cc1
Solution: -0.2

Problem: Please give the documented inhibition of O=S(=O)(CCOCc1ccc(-c2ccc3ncnc(Nc4ccc(OCc5cccc(F)c5)c(Cl)c4)c3c2)o1)c1ccccc1
Solution: 0.42

Problem: Please give the documented inhibition of c1ccc(Cc2nc3ccc(Nc4ncnc5ccccc45)cc3[nH]2)cc1
Solution: 1.7

Problem: Please give the documented inhibition of COC(=O)Nc1nc2cc(Oc3ccc(NC(=O)Nc4cccc(Br)c4)cc3)ccc2[nH]1
Solution: 3.06

Problem: Please give the documented inhibition of NS(=O)(=O)c1ccc(N/N=C2\C(=O)Nc3ccc(Cl)cc32)cc1
Solution: 1.55

----------
# Study target: Protein-tyrosine kinase 2-beta (Homo sapiens);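 also: values are the mean percent inhibition of PYK2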
# Test context: at 1 µM
Short version: inhibition at least 10% is Satisfied, less is Not satisfied.

Problem: For this compound, is measured inhibition 10% or higher? c1ccc(Cc2nc3ccc(Nc4ncnc5ccccc45)cc3[nH]2)cc1
Solution: Satisfied

Problem: For this compound, is measured inhibition 10% or higher? OCc1ccc(-c2nc(-c3ccccn3)c(-c3ccc4c(c3)OCO4)[nH]2)cc1
Solution: Satisfied

Problem: For this compound, is measured inhibition 10% or higher? Cc1ccc2c(-c3ccnc(Nc4ccc5c(c4)OCCO5)n3)c(-c3ccc(C(F)(F)F)cc3)nn2n1
Solution: Not satisfied

Problem: For this compound, is measured inhibition 10% or higher? CN(C)CCCn1c(-c2nonc2N)nc2cnccc21
Solution: Not satisfied

Problem: For this compound, is measured inhibition 10% or higher? Cc1ccc(O)cc1Nc1ccnc2ccc(S(C)(=O)=O)cc12
Solution: Satisfied

Problem: For this compound, is measured inhibition 10% or higher? Nc1ccc(C#Cc2cncnc2Nc2ccc(OCc3cccc(F)c3)c(Cl)c2)cc1
Solution: Not satisfied

Problem: For this compound, is measured inhibition 10% or higher? C[C@@H](Oc1cc(-n2cnc3ccc(OCC4CCN(C)CC4)cc32)sc1C(N)=O)c1ccccc1C(F)(F)F
Solution: Not satisfied

Problem: For this compound, is measured inhibition 10% or higher? CN1CCN(C(=O)c2ccc(NC(=O)Nc3ccc(N(C)c4ccnc(Nc5ccc(CS(C)(=O)=O)cc5)n4)cc3)cc2)CC1
Solution: Satisfied

Problem: For this compound, is measured inhibition 10% or higher? CCS(=O)(=O)c1ccc(OC)c(Nc2nccc(N(C)c3ccc4c(C)n[nH]c4c3)n2)c1
Solution: Satisfied

Problem: For this compound, is measured inhibition 10% or higher? O=C1Nc2ccccc2/C1=C/Nc1ccc2[nH]c(=O)[nH]c2c1
Solution: Satisfied

----------
Give measured inhibition for each item. Keep answers brief.
# Study target: Serine/threonine-protein kinase MRCK alpha (Homo sapiens)
# Test context: at 1 µM
Provide only the numeric value, understood in %.

Problem: Report inhibition under test system Serine/threonine-protein kinase MRCK alpha (Homo sapiens) for O=C1Nc2ccccc2/C1=C/Nc1ccc2[nH]c(=O)[nH]c2c1 .
Solution: 1.93

Problem: Report inhibition under test system Serine/threonine-protein kinase MRCK alpha (Homo sapiens) for O=S(=O)(CCOCc1ccc(-c2ccc3ncnc(Nc4ccc(OCc5cccc(F)c5)c(Cl)c4)c3c2)o1)c1ccccc1 .
Solution: -0.21

Problem: Report inhibition under test system Serine/threonine-protein kinase MRCK alpha (Homo sapiens) for Nc1nccc(-c2c(-c3ccc(F)cc3)nn3cc(C(F)(F)F)ccc23)n1 .
Solution: -4.53

Problem: Report inhibition under test system Serine/threonine-protein kinase MRCK alpha (Homo sapiens) for O=C1Nc2ccc(-c3cccnc3)cc2C1=Cc1cc(Br)c(O)c(Br)c1 .
Solution: -0.62

Problem: Report inhibition under test system Serine/threonine-protein kinase MRCK alpha (Homo sapiens) for COC(=O)c1cncc(/C=C/c2c(C)cc(O)cc2C)c1 .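 Also: each value is an averaged percent inhibition of MRCK alpha.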
Solution: 4.85

----------
# Study target: Tyrosine-protein kinase Fer (Homo sapiens)
# Test context: at 1 µM
# Description: GSK_PKIS: FER mean inhibition at 1 uM [Nanosyn]
Readout: inhibition (%)
Provide only the numeric value, understood in %.

Problem: Please give the documented inhibition of CN(C)C(=O)O[C@H]1CN[C@H](C#Cc2cc3ncnc(Nc4ccc(OCc5cccc(F)c5)c(Cl)c4)c3s2)C1
Solution: -0.03

Problem: Please give the documented inhibition of C[C@@H](Oc1cc(-n2cnc3ccc(OC[C@@H](O)CO)cc32)sc1C(N)=O)c1ccccc1Cl
Solution: 4.95

Problem: Please give the documented inhibition of NC(=O)c1sc(-n2cnc3ccccc32)cc1OCc1ccccc1Br
Solution: 3.22

Problem: Please give the documented inhibition of Oc1cccc(-c2nc(-c3ccccc3)[nH]c2-c2ccncc2)c1
Solution: 0.53

Problem: Please give the documented inhibition of CN(C)CCCn1c(-c2nonc2N)nc2cnccc21
Solution: 3.54

Problem: Please give the documented inhibition of Cc1ccc2c(c1)/C(=N/Nc1ccc(S(N)(=O)=O)cc1)C(=O)N2
Solution: 0.29

Problem: Please give the documented inhibition of Cc1cc(O)cc(C)c1/C=C/c1cncc(C(=O)N(C)C)c1
Solution: 1.61

Problem: Please give the documented inhibition of NC(=O)c1cccc(Nc2nccc(Nc3cccc(F)c3)n2)c1
Solution: 14.6

----------
Give measured inhibition for each item. Keep answers brief.
# Study target: Maternal embryonic leucine zipper kinase (Homo sapiens) (UniProt Q14680)
# Sequence (Q14680 whole entry, looked up): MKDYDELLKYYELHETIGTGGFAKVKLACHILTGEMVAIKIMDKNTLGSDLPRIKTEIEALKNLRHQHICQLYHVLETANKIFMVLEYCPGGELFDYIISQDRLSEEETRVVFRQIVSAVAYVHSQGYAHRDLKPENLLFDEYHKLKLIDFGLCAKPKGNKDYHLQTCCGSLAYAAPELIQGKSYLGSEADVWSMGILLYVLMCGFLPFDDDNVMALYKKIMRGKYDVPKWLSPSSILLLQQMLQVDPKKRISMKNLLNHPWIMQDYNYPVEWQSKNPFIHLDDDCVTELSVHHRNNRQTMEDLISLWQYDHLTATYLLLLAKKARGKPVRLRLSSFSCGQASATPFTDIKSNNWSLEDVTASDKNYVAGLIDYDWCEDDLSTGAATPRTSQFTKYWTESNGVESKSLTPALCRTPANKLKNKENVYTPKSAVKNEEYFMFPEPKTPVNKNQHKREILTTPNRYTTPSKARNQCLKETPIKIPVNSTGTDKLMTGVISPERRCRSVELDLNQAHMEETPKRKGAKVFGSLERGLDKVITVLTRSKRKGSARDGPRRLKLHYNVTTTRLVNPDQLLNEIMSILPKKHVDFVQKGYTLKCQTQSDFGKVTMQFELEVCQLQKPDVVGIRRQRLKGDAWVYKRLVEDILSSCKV
# Test context: at 1 µM
Provide only the numeric value, understood in %.

Problem: Report inhibition under test system Maternal embryonic leucine zipper kinase (Homo sapiens) (UniProt Q14680) for CS(=O)(=O)CCNCc1nc(-c2ccc3ncnc(Nc4ccc(OCc5cccc(C(F)(F)F)c5)cc4)c3c2)cs1 .
Solution: 2.55

Problem: Report inhibition under test system Maternal embryonic leucine zipper kinase (Homo sapiens) (UniProt Q14680) for Cc1ccc2c(-c3ccnc(Nc4ccc5c(c4)OCCO5)n3)c(-c3ccc(C(F)(F)F)cc3)nn2n1 .
Solution: 0.19

Problem: Report inhibition under test system Maternal embryonic leucine zipper kinase (Homo sapiens) (UniProt Q14680) for COc1cccc(-n2nc(C)c3c(N/N=C(\C)c4ccncc4)ncnc32)c1 .
Solution: 1.96

Problem: Report inhibition under test system Maternal embryonic leucine zipper kinase (Homo sapiens) (UniProt Q14680) for Cc1cc(-c2ccccn2)cc(C)c1/C=C/c1cncc(-c2nn[nH]n2)c1 .
Solution: 9.19

Problem: Report inhibition under test system Maternal embryonic leucine zipper kinase (Homo sapiens) (UniProt Q14680) for N#Cc1c(NC(=O)c2ccccc2F)sc2c1CCCC2 .
Solution: -2.77

Problem: Report inhibition under test system Maternal embryonic leucine zipper kinase (Homo sapiens) (UniProt Q14680) for O=C(Nc1ccc(Oc2ccc3[nH]c(NC(=O)c4ccco4)nc3c2)cc1)Nc1cc(C(F)(F)F)ccc1F .
Solution: 8.57

Problem: Report inhibition under test system Maternal embryonic leucine zipper kinase (Homo sapiens) (UniProt Q14680) for NC(=O)c1cccc(Nc2nccc(Nc3cccc(F)c3)n2)c1 .
Solution: 2.88

Problem: Report inhibition under test system Maternal embryonic leucine zipper kinase (Homo sapiens) (UniProt Q14680) for C[C@@H](Oc1cc(-n2cnc3ccc(OCC4CCN(C)CC4)cc32)sc1C(N)=O)c1ccccc1C(F)(F)F .
Solution: 22

Problem: Report inhibition under test system Maternal embryonic leucine zipper kinase (Homo sapiens) (UniProt Q14680) for CN(c1ccc(NC(=O)Nc2ccc(OC(F)(F)F)cc2)cc1)c1ccnc(Nc2cccc(S(N)(=O)=O)c2)n1 .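 Also: each value is the mean inhibition of MELK.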
Solution: -2.07

Measured values drawn from ChEMBL document CHEMBL1961873 for this set.
